- Tested on: Micrococcus luteus
- test-name: Antimicrobial activity against Sarcina lutea at 100 ug/ml after 24 hrs by agar well diffusion assay
- Format: functional
- assay-setup: read-out: DIZ
experimental-endpoint: zone of inhibition at 100 µg/mL
Phrase the answer as number then unit, nothing more needed.

Recorded zone of inhibition at 100 µg/mL for Cc1ccc(-n2nnc(C3=NN(C(=S)Nc4ccccc4)C(c4ccc(C#N)cc4)C3)c2C)cc1 (configuration not stated) on Micrococcus luteus was 24 mm

Recorded zone of inhibition at 100 µg/mL for Cc1ccc(-n2nnc(C3=NN(c4nc(-c5ccc(Cl)cc5)cs4)C(c4ccc(F)cc4)C3)c2C)cc1 (configuration not stated) on Micrococcus luteus was 22 mm

Recorded zone of inhibition at 100 µg/mL for Cc1ccc(-n2nnc(C(=O)/C=C/c3ccc(C#N)cc3)c2C)cc1 on Micrococcus luteus was 24 mm

Recorded zone of inhibition at 100 µg/mL for Cc1ccc(-n2nnc(C3=NN(C(N)=S)C(c4ccc(F)cc4)C3)c2C)cc1 (configuration not stated) on Micrococcus luteus was 16 mm

Recorded zone of inhibition at 100 µg/mL for Cc1ccc(-n2nnc(C3=NNC(c4ccc(N5CCCCC5)cc4)C3)c2C)cc1 (configuration not stated) on Micrococcus luteus was 18 mm

Recorded zone of inhibition at 100 µg/mL for Cc1ccc(-n2nnc(C3=NN(C(=S)Nc4ccccc4)C(c4ccccc4)C3)c2C)cc1 (configuration not stated) on Micrococcus luteus was 20 mm

Recorded zone of inhibition at 100 µg/mL for Cc1ccc(-n2nnc(C3=NN(C(=S)Nc4ccccc4)C(c4ccc(F)cc4)C3)c2C)cc1 (configuration not stated) on Micrococcus luteus was 20 mm
